- studyTarget: Inhibitor of nuclear factor kappa-B kinase subunit beta (Homo sapiens)
- testName: Inhibition of human recombinant C-terminal FLAG-epitope-tagged IKK2 expressed in baculovirus using biotinylated IkappaBalpha peptide as substrate assessed as decrease in [gamma-33P]-ATP incorporation in substrate after 30 mins by scintillation counting method
Readings of IC50 for the listed compounds

compound	studyTarget	IC50
NC(=O)c1nn(-c2ccc(S(N)(=O)=O)cc2)c2c1CCc1ccc(NS(=O)(=O)CC(F)(F)F)cc1-2	Inhibitor of nuclear factor kappa-B kinase subunit beta (Homo sapiens)	1000 to 10000 nM
NC(=O)c1nn(-c2ccc(S(N)(=O)=O)cc2)c2c1CCc1ccc(NC(=O)c3ccccc3F)cc1-2	Inhibitor of nuclear factor kappa-B kinase subunit beta (Homo sapiens)	≤ 1000 nM
Cc1cccc(C(=O)Nc2ccc3c(c2)-c2c(c(C(N)=O)nn2-c2ccc(S(N)(=O)=O)cc2)CC3)c1	Inhibitor of nuclear factor kappa-B kinase subunit beta (Homo sapiens)	≤ 1000 nM
CCCCS(=O)(=O)c1ccc(-n2nc(C(N)=O)c3c2-c2cc(NC(=O)c4ccccc4Cl)ccc2CC3)cc1	Inhibitor of nuclear factor kappa-B kinase subunit beta (Homo sapiens)	1000 to 10000 nM
NC(=O)c1nn(-c2ccc(S(N)(=O)=O)cc2)c2c1CCc1ccc(NC(=O)c3ccccc3OC(F)(F)F)cc1-2	Inhibitor of nuclear factor kappa-B kinase subunit beta (Homo sapiens)	≤ 1000 nM
NC(=O)/C=C/c1ccc(-n2nc(C(N)=O)c3c2-c2cc(NC(=O)c4cccnc4Cl)ccc2CC3)cc1	Inhibitor of nuclear factor kappa-B kinase subunit beta (Homo sapiens)	≤ 1000 nM
CN(C)CCOc1ccc(Cl)c(C(=O)Nc2ccc3c(c2)-c2c(c(C(N)=O)nn2-c2ccc4c(c2)OCO4)CC3)c1	Inhibitor of nuclear factor kappa-B kinase subunit beta (Homo sapiens)	1000 to 10000 nM
CN1CCCN(c2cc(C(=O)Nc3ccc4c(c3)-c3c(c(C(N)=O)nn3-c3ccc(F)cc3)CC4)c(Cl)cn2)CC1	Inhibitor of nuclear factor kappa-B kinase subunit beta (Homo sapiens)	≤ 1000 nM
CC(C)(O)/C=C/c1ccc(-n2nc(C(N)=O)c3c2-c2cc(NC(=O)c4cccnc4Cl)ccc2CC3)cc1	Inhibitor of nuclear factor kappa-B kinase subunit beta (Homo sapiens)	1000 to 10000 nM
CC1Cc2c(C(N)=O)nn(-c3ccc(F)cc3)c2-c2cc(NC(=O)c3cccnc3Cl)ccc21 (configuration not stated)	Inhibitor of nuclear factor kappa-B kinase subunit beta (Homo sapiens)	≤ 1000 nM
NC(=O)c1nn(-c2cccnc2)c2c1CCc1ccc(NC(=O)c3ccccc3Cl)cc1-2	Inhibitor of nuclear factor kappa-B kinase subunit beta (Homo sapiens)	1000 to 10000 nM
NC(=O)c1nn(-c2ccc(S(N)(=O)=O)cc2)c2c1CCc1ccc(NC(=O)c3cccnc3)cc1-2	Inhibitor of nuclear factor kappa-B kinase subunit beta (Homo sapiens)	≤ 1000 nM
CN(C)CCNS(=O)(=O)c1ccc(-n2nc(C(N)=O)c3c2-c2cc(NC(=O)c4ccccc4Cl)ccc2CC3)cc1	Inhibitor of nuclear factor kappa-B kinase subunit beta (Homo sapiens)	≤ 1000 nM
Cc1cccc(C(=O)Nc2ccc3c(c2)-c2c(c(C(N)=O)nn2-c2ccc(S(C)(=O)=O)cc2)CC3)c1	Inhibitor of nuclear factor kappa-B kinase subunit beta (Homo sapiens)	1000 to 10000 nM
Cc1c(C(=O)Nc2ccc3c(c2)-c2c(c(C(N)=O)nn2-c2ccc(S(C)(=O)=O)cc2)CC3)cccc1[N+](=O)[O-]	Inhibitor of nuclear factor kappa-B kinase subunit beta (Homo sapiens)	1000 to 10000 nM
CC1(C)OCC(COc2ccc(-n3nc(C(N)=O)c4c3-c3cc(NC(=O)c5ccncc5Cl)ccc3CC4)cc2)O1 (configuration not stated)	Inhibitor of nuclear factor kappa-B kinase subunit beta (Homo sapiens)	1000 to 10000 nM
COc1ccc(S(=O)(=O)Nc2ccc3c(c2)-c2c(c(C(N)=O)nn2-c2ccc(S(N)(=O)=O)cc2)CC3)cc1	Inhibitor of nuclear factor kappa-B kinase subunit beta (Homo sapiens)	10000 to 100000 nM
NC(=O)c1nn(-c2ccc(OCC(O)CO)cc2)c2c1CCc1ccc(NC(=O)c3cc(N)ccc3Cl)cc1-2 (configuration not stated)	Inhibitor of nuclear factor kappa-B kinase subunit beta (Homo sapiens)	≤ 1000 nM
NC(=O)c1nn(-c2ccc(S(N)(=O)=O)cc2)c2c1CCc1ccc(NC(=O)C34CC5CC(CC(C5)C3)C4)cc1-2	Inhibitor of nuclear factor kappa-B kinase subunit beta (Homo sapiens)	1000 to 10000 nM
CN(C)CCC(=O)Nc1ccc(-n2nc(C(N)=O)c3c2-c2cc(NC(=O)c4ccccc4Cl)ccc2CC3)cc1	Inhibitor of nuclear factor kappa-B kinase subunit beta (Homo sapiens)	1000 to 10000 nM
NC(=O)c1nn(-c2ccc3c(c2)OCO3)c2c1CCc1ccc(NC(=O)c3nc(CN4CCOCC4)ccc3Cl)cc1-2	Inhibitor of nuclear factor kappa-B kinase subunit beta (Homo sapiens)	≤ 1000 nM
NC(=O)c1nn(-c2ccc3c(c2)OCO3)c2c1CCc1ccc(NC(=O)c3cc(Cl)cnc3Cl)cc1-2	Inhibitor of nuclear factor kappa-B kinase subunit beta (Homo sapiens)	≤ 1000 nM
CCCC(=O)Nc1ccc2c(c1)-c1c(c(C(N)=O)nn1-c1ccc(S(N)(=O)=O)cc1)CC2	Inhibitor of nuclear factor kappa-B kinase subunit beta (Homo sapiens)	1000 to 10000 nM
COc1ccc(CNc2ncccc2C(=O)Nc2ccc3c(c2)-c2c(c(C(N)=O)nn2-c2ccc4c(c2)OCO4)CC3)cc1	Inhibitor of nuclear factor kappa-B kinase subunit beta (Homo sapiens)	10000 to 100000 nM
CCCS(=O)(=O)Nc1ccc2c(c1)-c1c(c(C(N)=O)nn1-c1ccc(S(N)(=O)=O)cc1)CC2	Inhibitor of nuclear factor kappa-B kinase subunit beta (Homo sapiens)	1000 to 10000 nM
C[S+]([O-])c1ccc(-n2nc(C(N)=O)c3c2-c2cc(NC(=O)c4ccncc4Cl)ccc2CC3)cc1 (configuration not stated)	Inhibitor of nuclear factor kappa-B kinase subunit beta (Homo sapiens)	≤ 1000 nM
CC(C)(C)C(=O)ONCCCCC(=O)Nc1ccc(-n2nc(C(N)=O)c3c2-c2cc(NC(=O)c4ccccc4Cl)ccc2CC3)cc1	Inhibitor of nuclear factor kappa-B kinase subunit beta (Homo sapiens)	1000 to 10000 nM
CSc1ccccc1C(=O)Nc1ccc2c(c1)-c1c(c(C(N)=O)nn1-c1ccc(S(C)(=O)=O)cc1)CC2	Inhibitor of nuclear factor kappa-B kinase subunit beta (Homo sapiens)	1000 to 10000 nM
NCc1ccc(Cl)c(C(=O)Nc2ccc3c(c2)-c2c(c(C(N)=O)nn2-c2ccc4c(c2)OCO4)CC3)n1	Inhibitor of nuclear factor kappa-B kinase subunit beta (Homo sapiens)	1000 to 10000 nM
C#CCN(CC#C)S(=O)(=O)c1ccc(-n2nc(C(N)=O)c3c2-c2cc(NC(=O)c4ccccc4Cl)ccc2CC3)cc1	Inhibitor of nuclear factor kappa-B kinase subunit beta (Homo sapiens)	1000 to 10000 nM
NC(=O)c1nn(-c2ccc(-c3ccoc3)cc2)c2c1CCc1ccc(NC(=O)c3ccccc3Cl)cc1-2	Inhibitor of nuclear factor kappa-B kinase subunit beta (Homo sapiens)	1000 to 10000 nM
CS(=O)(=O)c1ccc(-n2nc(C(N)=O)c3c2-c2cc(NC(=O)c4ccccc4N)ccc2CC3)cc1	Inhibitor of nuclear factor kappa-B kinase subunit beta (Homo sapiens)	1000 to 10000 nM

---

- studyTarget: Inhibitor of nuclear factor kappa-B kinase subunit beta (Homo sapiens)
- testName: Inhibition of human recombinant C-terminal FLAG-epitope-tagged IKK2 expressed in baculovirus using biotinylated IkappaBalpha peptide as substrate assessed as decrease in [gamma-33P]-ATP incorporation in substrate after 30 mins by scintillation counting method
pIC50: −log10 of the molar value.
measuredProperty: pIC50

NC(=O)c1nn(-c2ccc(F)cc2)c2c1CCc1ccc(NC(=O)c3cc4c(cc3Cl)OCO4)cc1-2 ≥ 6.00
NC(=O)c1nn(-c2ccc(Cl)c(Cl)c2)c2c1CCc1ccc(NC(=O)c3ccccc3Cl)cc1-2 5.00 to 6.00
Cc1ccc(CNc2ccc3c(c2)-c2c(c(C(N)=O)nn2-c2ccc(S(N)(=O)=O)cc2)CC3)cc1 4.00 to 5.00
NC(=O)c1nn(-c2ccc(S(N)(=O)=O)cc2)c2c1CCc1ccc(NS(=O)(=O)c3cccc(C(F)(F)F)c3)cc1-2 4.00 to 5.00
CC(=O)Oc1cccc(C(=O)Nc2ccc3c(c2)-c2c(c(C(N)=O)nn2-c2cccc(F)c2)CC3)c1C 5.00 to 6.00
NC(=O)c1nn(-c2ccc(/C=C3\CCOC3=O)cc2)c2c1CCc1ccc(NC(=O)c3ccccc3Cl)cc1-2 5.00 to 6.00
Cc1c(O)cccc1C(=O)Nc1ccc2c(c1)-c1c(c(C(N)=O)nn1-c1ccc(S(C)(=O)=O)cc1)CC2 ≥ 6.00
NC(=O)c1nn(-c2ccc3c(c2)OCO3)c2c1CCc1ccc(NC(=O)c3nc(Cl)ccc3Cl)cc1-2 5.00 to 6.00

---

- studyTarget: Inhibitor of nuclear factor kappa-B kinase subunit beta (Homo sapiens, UniProt O14920)
- Sequence (O14920 whole entry): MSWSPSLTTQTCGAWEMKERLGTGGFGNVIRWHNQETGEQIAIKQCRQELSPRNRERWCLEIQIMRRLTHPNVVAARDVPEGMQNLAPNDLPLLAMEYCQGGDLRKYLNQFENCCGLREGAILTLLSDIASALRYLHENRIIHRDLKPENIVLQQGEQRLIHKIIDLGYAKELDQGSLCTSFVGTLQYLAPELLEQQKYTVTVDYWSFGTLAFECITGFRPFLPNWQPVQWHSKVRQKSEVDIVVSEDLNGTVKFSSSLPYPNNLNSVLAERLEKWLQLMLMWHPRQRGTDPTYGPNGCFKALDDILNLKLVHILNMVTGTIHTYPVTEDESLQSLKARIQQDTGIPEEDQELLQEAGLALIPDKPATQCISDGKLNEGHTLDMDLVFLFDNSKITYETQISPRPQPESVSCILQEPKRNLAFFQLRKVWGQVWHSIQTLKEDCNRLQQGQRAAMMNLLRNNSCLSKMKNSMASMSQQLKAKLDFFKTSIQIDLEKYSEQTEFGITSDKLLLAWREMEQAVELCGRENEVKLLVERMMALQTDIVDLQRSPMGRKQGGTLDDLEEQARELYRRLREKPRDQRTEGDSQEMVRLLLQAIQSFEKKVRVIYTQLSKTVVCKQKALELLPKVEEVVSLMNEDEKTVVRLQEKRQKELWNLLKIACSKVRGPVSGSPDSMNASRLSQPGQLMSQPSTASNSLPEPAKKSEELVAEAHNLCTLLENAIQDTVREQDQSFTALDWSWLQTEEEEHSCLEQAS
- testName: Inhibition of human recombinant C-terminal FLAG-epitope-tagged IKK2 expressed in baculovirus using biotinylated IkappaBalpha peptide as substrate assessed as decrease in [gamma-33P]-ATP incorporation in substrate after 30 mins by scintillation counting method
pIC50: −log10 of the molar value.
Readings of pIC50 for the listed compounds
measuredProperty: pIC50

NC(=O)c1nn(-c2ccc(S(N)(=O)=O)cc2)c2c1CCc1ccc(NS(=O)(=O)c3ccc(Cl)cc3Cl)cc1-2 5.00 to 6.00
NC(=O)c1nn(-c2ccc(S(N)(=O)=O)cc2)c2c1CCc1ccc(NC(=O)c3ccccc3Cl)cc1-2 ≥ 6.00
CC(C)N1CCN(c2cc(C(=O)Nc3ccc4c(c3)-c3c(c(C(N)=O)nn3-c3ccc(F)cc3)CC4)c(Cl)cn2)CC1 ≥ 6.00
CN1CCN(c2cc(C(=O)Nc3ccc4c(c3)-c3c(c(C(N)=O)nn3-c3ccc5c(c3)OCO5)CC4)c(Cl)cn2)CC1 ≥ 6.00
CN1CCN(c2ccc(Cl)c(C(=O)Nc3ccc4c(c3)-c3c(c(C(N)=O)nn3-c3ccc(S(C)(=O)=O)cc3)CC4)c2)CC1 > 6.00
NC(=O)c1nn(-c2cccc([N+](=O)[O-])c2)c2c1CCc1ccc(NC(=O)c3ccccc3Cl)cc1-2 5.00 to 6.00
NCCCS(=O)(=O)c1ccc(-n2nc(C(N)=O)c3c2-c2cc(NC(=O)c4cccnc4Cl)ccc2CC3)cc1 5.00 to 6.00
CS(=O)(=O)c1ccc(-n2nc(C(N)=O)c3c2-c2cc(NC(=O)c4cc(Cl)ccc4N)ccc2CC3)cc1 5.00 to 6.00
